System: GP2D (KRAS G12D) cells
Test: 2D cell viability assay (CellTiter-Glo)
Assay type: cell-based
Conditions: GP2d, 96 h, 4 days
pEC50: −log10 of the molar value.
Please mark y if the recorded pEC50 is equal to or greater than 8, and n if it falls below.

{"COMPOUND": "C#Cc1c(F)ccc2cc(O)cc(-c3nc4c5c(nc(OC[C@@]67CCCN6[C@H](COC(=O)N(C)C)CC7)nc5c3F)N3C[C@H]5CC[C@H](N5)[C@H]3CO4)c12", "ANSWER_LABEL": "n"}

q: Determine whether this compound has pEC50 no lower than 8: C#Cc1c(F)ccc2cccc(-c3nc4c5c(nc(OC[C@]67CCCN6C[C@@H](OC(F)(F)F)C7)nc5c3F)N3C[C@H]5CC[C@H](N5)[C@H]3CC4)c12 (stereo in doubt)
a: n

q: Determine whether this compound has pEC50 no lower than 8: C#Cc1c(F)ccc2cccc(-c3nc4c5c(nc(OC[C@@]67CCCN6C[C@H](F)C7)nc5c3F)N3C[C@H]5CC[C@H](N5)C3C[C@@H]4C)c12 (stereo in doubt)
a: n

q: Determine whether this compound has pEC50 no lower than 8: `C#Cc1c(F)ccc2cccc(-c3nc4c5c(nc(OC[C@@]67CCCN6C[C@H](F)C7)nc5c3F)N3C[C@H]5CC[C@H](N5)[C@@H]3[C@@H](C)CC4)c12`
a: n

q: Determine whether this compound has pEC50 no lower than 8: `C#Cc1c(F)ccc2cccc(-c3nc4c5c(nc(OC[C@@]67CCCN6C[C@H](F)C7)nc5c3F)N3C[C@H]5CC[C@H](N5)[C@H]3CO4)c12`
a: n

q: Determine whether this compound has pEC50 no lower than 8: `C#Cc1c(F)ccc2cc(O)cc(-c3nc4c5c(nc(OC[C@@]67CCCN6[C@H](Cn6ccnn6)CC7)nc5c3F)N3C[C@H]5CC[C@H](N5)[C@H]3CO4)c12`
a: n

q: Determine whether this compound has pEC50 no lower than 8: `C#Cc1c(F)ccc2cc(O)cc(-c3nc4c5c(nc(OC[C@@]67CCCN6[C@H](COc6ncccc6OC(F)(F)F)CC7)nc5c3F)N3C[C@H]5CC[C@H](N5)[C@H]3CC4)c12`
a: y

q: Determine whether this compound has pEC50 no lower than 8: `C#Cc1c(F)ccc2cccc(-c3nc4c5c(nc(OCC6(CN7CCC8(CC7)CC8)CC6)nc5c3F)N3C[C@H]5CC[C@H](N5)[C@H]3CCC4)c12`
a: n

q: Determine whether this compound has pEC50 no lower than 8: `C#Cc1c(F)ccc2cccc(-c3nc4c5c(nc(OC[C@@]67CCCN6[C@H](COC(C(F)(F)F)C(F)(F)F)CC7)nc5c3F)N3C[C@H]5CC[C@H](N5)[C@H]3CC4)c12`
a: n

q: Determine whether this compound has pEC50 no lower than 8: `C#Cc1c(F)ccc2cc(O)cc(-c3c(Cl)c4c5c(nc(OC[C@@]67CCCN6C[C@H](F)C7)nc5c3F)N3C[C@H]5CC[C@H](N5)[C@H]3CC4)c12`
a: y
